Target: MC1-R (Mus musculus)
Construct: membranes prepared from hMC3-R, hMC4-R, hMC5-R, and B-16 mouse melanoma cells (containing MC1-R); endogenous in cells; host or cells: B-16 mouse melanoma cells (membranes)
Sequence (Q01727 whole entry): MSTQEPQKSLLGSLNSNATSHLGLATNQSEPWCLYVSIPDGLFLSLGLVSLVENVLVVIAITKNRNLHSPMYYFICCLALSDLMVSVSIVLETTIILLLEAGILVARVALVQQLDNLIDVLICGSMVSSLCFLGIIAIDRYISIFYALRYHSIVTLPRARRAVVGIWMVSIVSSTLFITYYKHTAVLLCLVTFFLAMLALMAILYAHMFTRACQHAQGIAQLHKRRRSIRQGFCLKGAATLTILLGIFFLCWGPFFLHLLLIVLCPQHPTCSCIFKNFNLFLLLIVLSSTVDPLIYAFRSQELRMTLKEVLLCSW
Assay: competitive inhibition binding assay, 125I-NDP-alpha-MSH, B-16 mouse melanoma cell membranes
Conditions: 1 μM test peptide; 0.4 nM 125I-NDP-alpha-MSH; B-16 mouse melanoma cell membranes
Square brackets hold non-standard residues; d marks the D form. Ends that are not written are not given here. Nle = CCCC[C@H](N)C(=O)O
MEASURE: % Inhibition at 1 μM at Melanocortin Receptor 1 (%)

{"columns": ["SUBSTANCE", "MEASURED_VALUE"],
 "data": [
  ["Tyr-Val-Nle-Gly-Cys-His-D-Phe-Arg-Trp-Asp-Arg-Phe-NH2 (YV[Nle]GCH[dF]RWDRF-NH2; not fully specified (bridges); printed as Tyr-Val-Nle-Gly-Cys-His-D-Phe-Arg-Trp-Asp-Arg-Phe-NH2; numbers in words are those of the source; also: oxorhenium(V) N3S1 chelate complex (Re=O)) [3-9]", 77],
  ["Ac-Ser-Tyr-Ser-Nle-Glu-His-Phe-Arg-Trp-Gly-Lys-Gly-D-Cys-Val-NH2 (Ac-SYS[Nle]EHFRWGKG[dC]V-NH2; not fully specified (bridges); printed as Ac-Ser-Tyr-Ser-Nle-Glu-His-Phe-Arg-Trp-Gly-Lys-Gly-D-Cys-Val-NH2; numbers in words are those of the source; also: oxorhenium(V) N3S1 chelate (Re(V)=O)) [2-2]", 93],
  ["Ac-Ser-Tyr-Ser-Cys-Nle-Glu-His-Phe-Arg-Trp-Gly-Lys-Pro-Val-NH2 (chain 1 Ac-SYSC[Nle]; chain 2 EHFRWGKPV-NH2; not fully specified (bridges); printed as Ac-Ser-Tyr-Ser-Cys-Nle-Glu-His-Phe-Arg-Trp-Gly-Lys-Pro-Val-NH2; also: oxorhenium(V) N3S1 chelate (Re(V)=O)) [1-11]", 95]
]}

----------
Target: hMC4-R (Homo sapiens)
Construct: expressed in transfected cells
Sequence (P32245 whole entry): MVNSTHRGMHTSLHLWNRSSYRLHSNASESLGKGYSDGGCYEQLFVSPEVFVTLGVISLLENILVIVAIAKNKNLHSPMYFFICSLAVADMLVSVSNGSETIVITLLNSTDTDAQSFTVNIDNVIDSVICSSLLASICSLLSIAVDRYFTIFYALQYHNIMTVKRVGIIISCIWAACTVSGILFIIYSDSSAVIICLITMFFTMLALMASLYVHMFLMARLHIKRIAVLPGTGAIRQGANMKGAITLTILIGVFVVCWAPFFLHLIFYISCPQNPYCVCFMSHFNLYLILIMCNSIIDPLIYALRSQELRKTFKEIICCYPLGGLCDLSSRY
Assay: competitive inhibition binding assay, 125I-NDP-alpha-MSH, hMC4-R membranes
Conditions: 1 μM test peptide; 0.4 nM 125I-NDP-alpha-MSH; hMC4-R membranes
Square brackets hold non-standard residues; d marks the D form. Ends that are not written are not given here. Nle = CCCC[C@H](N)C(=O)O
# % Inhibition at 1 μM at Melanocortin Receptor 4 values compiled below
MEASURE: % Inhibition at 1 μM at Melanocortin Receptor 4 (%)

{"columns": ["SUBSTANCE", "MEASURED_VALUE"],
 "data": [
  ["Ac-Ser-Tyr-Ser-Nle-Glu-His-Phe-Arg-Trp-Gly-Cys-Lys-Pro-Val-NH2 (Ac-SYS[Nle]EHFRWGCKPV-NH2; not fully specified (bridges); printed as Ac-Ser-Tyr-Ser-Nle-Glu-His-Phe-Arg-Trp-Gly-Cys-Lys-Pro-Val-NH2; numbers in words are those of the source; also: oxorhenium(V) N3S1 chelate (Re(V)=O)) [1-4]", 0],
  ["Tyr-Val-Nle-Gly-His-Cys-D-Phe-Arg-Trp-Asp-Arg-Phe-NH2 [3-8] (YV[Nle]GHC[dF]RWDRF-NH2; numbers in words are those of the source; also: oxorhenium(V) N3S1 chelate complex (Re=O))", 55],
  ["Ac-Ser-Tyr-Ser-Nle-Glu-Cys-His-Phe-Arg-Trp-Gly-Lys-Pro-Val-NH2 (Ac-SYS[Nle]ECHFRWGKPV-NH2; not fully specified (bridges); printed as Ac-Ser-Tyr-Ser-Nle-Glu-Cys-His-Phe-Arg-Trp-Gly-Lys-Pro-Val-NH2; numbers in words are those of the source; also: oxorhenium(V) N3S1 chelate (Re(V)=O)) [1-9]", 3],
  ["Tyr-Val-Nle-Gly-Cys-His-Phe-Arg-Trp-Asp-Arg-Phe-NH2 (YV[Nle]GCHFRWDRF-NH2; not fully specified (bridges); printed as Tyr-Val-Nle-Gly-Cys-His-Phe-Arg-Trp-Asp-Arg-Phe-NH2; numbers in words are those of the source; also: oxorhenium(V) N3S1 chelate (Re=O) with Cys) [4-8]", "−1"],
  ["Ac-Ser-Tyr-Ser-Cys-Nle-Glu-His-Phe-Arg-Trp-Gly-Lys-Pro-Val-NH2 (chain 1 Ac-SYSC[Nle]; chain 2 EHFRWGKPV-NH2; not fully specified (bridges); printed as Ac-Ser-Tyr-Ser-Cys-Nle-Glu-His-Phe-Arg-Trp-Gly-Lys-Pro-Val-NH2; also: oxorhenium(V) N3S1 chelate (Re(V)=O)) [1-11]", 21],
  ["Ac-Ser-Tyr-Ser-Nle-Glu-His-Phe-D-Cys-Arg-Trp-Gly-Lys-Pro-Val-NH2 ({Ac-Ser-Tyr-Ser-Nle-Glu-H2N}-F[dC]RWGKPV-NH2; numbers in words are those of the source; also: oxorhenium(V) N3S1 chelate via Cys (Re(V)=O)) [2-7]", 6]
]}

----------
Tested on: bombesin receptor
Experiment: competitive binding assay, 125I-Bombesin, rat brain membranes
Settings: inhibition of 0.01 nM 125I-Bombesin binding; rat brain membranes; test concentration not given
Square brackets hold non-standard residues; d marks the D form. Ends that are not written are not given here. pGlu = O=C1CC[C@@H](C(=O)O)N1; Nle = CCCC[C@H](N)C(=O)O

{"columns": ["SUBSTANCE", "TESTED_SYSTEM", "SCALE_UNIT", "% Inhibition"],
 "data": [
  ["D-Phe-Gln-Trp-Cys-Val-Gly-His-Leu-Leu-NH2 ([dF]QWCVGHLL-NH2; also: oxorhenium(V) N3S1 chelate complex (Re=O)) [9-6]", "bombesin receptor", "%", 43],
  ["D-Phe-Gln-Trp-Ala-Val-Gly-Cys-His-Leu-Leu-NH2 ([dF]QWAVGCHLL-NH2; also: oxorhenium(V) N3S1 chelate via Cys (Re(V)=O)) [8-4]", "bombesin receptor", "%", 59],
  ["Pyr-Gln-Arg-Leu-Gly-Asn-Gln-Trp-Ala-Val-Gly-His-Cys-Nle-NH2 (QRLGNQWAVGHC; N-term pyroglutamate; Nle-NH2; rhenium complex; printed: Gln-Arg-Leu-Gly-Asn-Gln-Trp-Ala-Val-Gly-His-Cys-) [7-2]", "bombesin receptor", "%", 66],
  ["Pyr-Gln-Arg-Leu-Gly-Cys-Asn-Gln-Trp-Ala-Val-Gly-His-Leu-Nle-NH2 ([pGlu]QRLGCNQWAVGHL[Nle]-NH2; numbers in words are those of the source; also: rhenium complex (oxorhenium(V) N3S1 tetradentate chelate via Re=O core)) [6-10]", "bombesin receptor", "%", 93],
  ["D-Phe-Gln-Trp-Ala-Val-Gly-Cys-Leu-Leu-NH2 ([dF]QWAVGCLL-NH2; also: oxorhenium(V) N3S1 chelate via Cys (Re(V)=O)) [9-3]", "bombesin receptor", "%", 70]
]}

----------
Overview of recorded % Inhibition for various substances
Tested on: bombesin receptor
Experiment: competitive binding assay, 125I-Bombesin, rat brain membranes
Conditions: inhibition of 0.01 nM 125I-Bombesin binding; rat brain membranes; test concentration not given
Square brackets hold non-standard residues; d marks the D form. Primed or numbered codes have the meaning given here. Ends that are not written are not given here. pGlu = O=C1CC[C@@H](C(=O)O)N1; Nle = CCCC[C@H](N)C(=O)O; dH′ = not defined here
MEASURE: % Inhibition (%)

{"columns": ["SUBSTANCE", "SCALE_UNIT", "MEASURED_VALUE"],
 "data": [
  ["Pyr-Gln-Arg-Leu-Gly-Asn-Gln-Trp-Ala-Val-Gly-His-Leu-Cys-Nle-NH2 (QRLGNQWAVGHLC; N-term pyroglutamate; Nle-NH2; rhenium complex; printed: Gln-Arg-Leu-Gly-Asn-Gln-Trp-Ala-Val-Gly-His-Leu-Cys-) [6-2]", "%", 91],
  ["Trp-Ala-Val-Cys-NH2 (WAVC-NH2; not fully specified (bridges); printed as Trp-Ala-Val-Cys-NH2; also: oxorhenium(V) N3S1 chelate (Re=O) with Cys) [11-14]", "%", 8],
  ["Pyr-Gln-Arg-Cys-Leu-Gly-Asn-Gln-Trp-Ala-Val-Gly-His-Leu-Nle-NH2 ([pGlu]QRCLGNQWAVGHL[Nle]-NH2; numbers in words are those of the source; also: oxorhenium(V) N3S1 chelate (Re(V)=O)) [6-12]", "%", 97],
  ["D-Phe-Gln-Trp-Ala-Val-Cys-D-His-Leu-Leu-NH2 ([dF]QWAVC[dH′]LL-NH2; also: oxorhenium(V) N3S1 chelate via Cys (Re(V)=O)) [10-1]", "%", 10],
  ["Pyr-Gln-Arg-Leu-Gly-Asn-Gln-Cys-Trp-Ala-Val-Gly-His-Leu-Nle-NH2 ([pGlu]QRLGNQCWAVGHL[Nle]-NH2; numbers in words are those of the source; also: oxorhenium(V) N3S1 chelate (Re(V)=O)) [6-8]", "%", 75],
  ["Pyr-Gln-Arg-Leu-Gly-Asn-Gln-Trp-Ala-Val-Cys-Gly-His-Leu-Nle-NH2 ([pGlu]QRLGNQWAVCGHL[Nle]-NH2; numbers in words are those of the source; also: oxorhenium(V) N3S1 chelate (Re=O) with Cys) [6-5]", "%", 67],
  ["Pyr-Gln-Arg-Leu-Gly-Asn-Gln-Trp-Ala-Val-Gly-His-Leu-Cys-NH2 (QRLGNQWAVGHLC; N-term pyroglutamate; C-terminal amide; rhenium complex; printed: Gln-Arg-Leu-Gly-Asn-Gln-Trp-Ala-Val-Gly-His-Leu-Cys-) [7-1]", "%", 73],
  ["Pyr-Gln-Arg-Cys-Gly-Asn-Gln-Trp-Ala-Val-Gly-His-Leu-Nle-NH2 (QRCGNQWAVGHL; N-term pyroglutamate; Nle-NH2; rhenium complex; printed: Gln-Arg-Cys-Gly-Asn-Gln-Trp-Ala-Val-Gly-His-Leu-) [7-11]", "%", 95]
]}
